Target system: M4 receptor (Homo sapiens)
Construct: expressed in transfected cells
Sequence (P08173 1-479): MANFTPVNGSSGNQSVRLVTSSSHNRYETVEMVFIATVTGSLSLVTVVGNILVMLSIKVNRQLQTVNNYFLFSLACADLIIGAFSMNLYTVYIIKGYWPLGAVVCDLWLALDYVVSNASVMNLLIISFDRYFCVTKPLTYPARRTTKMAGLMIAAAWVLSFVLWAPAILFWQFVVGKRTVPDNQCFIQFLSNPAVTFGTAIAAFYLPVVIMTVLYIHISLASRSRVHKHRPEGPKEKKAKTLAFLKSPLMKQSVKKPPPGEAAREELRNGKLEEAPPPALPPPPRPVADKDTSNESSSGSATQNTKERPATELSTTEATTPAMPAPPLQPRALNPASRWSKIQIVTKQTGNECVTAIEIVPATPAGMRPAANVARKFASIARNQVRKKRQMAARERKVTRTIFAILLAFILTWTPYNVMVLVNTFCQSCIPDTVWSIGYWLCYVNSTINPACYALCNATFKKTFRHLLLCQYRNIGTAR
Protocol description: Calcium flux (FLIPR) potentiation assay in cells stably expressing M4 receptor
Type: cell-based
Condition info: CHO-K1/M4/Gα15 cells; potentiation of acetylcholine (EC20) calcium flux; read-out: M4 FLIPR EC50
pEC50: −log10 of the molar value.
Measured endpoint: pEC50

Recorded pEC50, per entry:
[
  {
    "Compound": "Cc1c2c(c3ccnn3c1C)CN(C(=O)CC1CN(c3ccnc(C(F)(F)F)c3)C1)C2 [Example 76]",
    "Target system": "M4 receptor (Homo sapiens)",
    "pEC50": 7.39
  },
  {
    "Compound": "Cc1c2c(c3ncnn3c1C)CN(C(=O)OC1CN(c3ccnc(C(F)(F)F)c3)C1)C2 [Example 32]",
    "Target system": "M4 receptor (Homo sapiens)",
    "pEC50": 7.14
  },
  {
    "Compound": "Cc1c2c(c3ccnn3c1C)CN(C(=O)CC1CN(c3ccnc(OC4CC4)c3)C1)C2 [Example 221]",
    "Target system": "M4 receptor (Homo sapiens)",
    "pEC50": 7.03
  },
  {
    "Compound": "Cc1c2c(c3nc(N)nn3c1C)CN(C(=O)CC1CN(c3ccnc(C(F)(F)F)c3)C1)C2 [Example 145]",
    "Target system": "M4 receptor (Homo sapiens)",
    "pEC50": 7.56
  },
  {
    "Compound": "Cc1c2c(c3ncnn3c1C)CN(C(=O)CC1CN(c3ccnc(C4CCCCO4)c3)C1)C2 (centres unmarked) [Example 100]",
    "Target system": "M4 receptor (Homo sapiens)",
    "pEC50": 7.74
  }
]

[1] Cc1nc2c3c(c(C)c(C)n2n1)CN(C(=O)CC1CN(c2ccnc(C(F)(F)F)c2)C1)C3 [Example 57]
[2] Cc1c2c(c3ncnn3c1C)CN(C(=O)CC1CN(c3ncc(C(F)(F)F)cn3)C1)C2 [Example 144]
[3] COc1cc(N2CC(OC(=O)N3Cc4c(C)c(C)n5ncnc5c4C3)C2)ccn1 [Example 182]
Rank the items in ascending order with respect to pEC50. Order the labels as requested and give them as your answer. 2, 3, 1
(2: 7.07, 3: 7.43, 1: 7.74)

---

Target system: M4 receptor (Homo sapiens, UniProt P08173)
Construct: expressed in transfected cells
Sequence (P08173 1-479): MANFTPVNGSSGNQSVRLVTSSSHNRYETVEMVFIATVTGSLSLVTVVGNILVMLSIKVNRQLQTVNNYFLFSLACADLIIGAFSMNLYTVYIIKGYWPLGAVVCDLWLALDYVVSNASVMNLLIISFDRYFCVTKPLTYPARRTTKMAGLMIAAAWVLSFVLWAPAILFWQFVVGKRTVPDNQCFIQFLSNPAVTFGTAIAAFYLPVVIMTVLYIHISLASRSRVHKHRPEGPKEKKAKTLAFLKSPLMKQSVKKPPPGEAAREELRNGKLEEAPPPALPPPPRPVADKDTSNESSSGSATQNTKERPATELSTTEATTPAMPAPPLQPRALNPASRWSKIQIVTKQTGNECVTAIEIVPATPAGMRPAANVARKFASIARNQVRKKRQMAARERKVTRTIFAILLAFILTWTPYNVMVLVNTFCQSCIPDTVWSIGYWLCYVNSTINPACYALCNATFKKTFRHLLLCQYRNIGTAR
Protocol description: Calcium flux (FLIPR) potentiation assay in cells stably expressing M4 receptor
Assay type: cell-based
Condition info: CHO-K1/M4/Gα15 cells; potentiation of acetylcholine (EC20) calcium flux; read-out: M4 FLIPR EC50
pEC50: −log10 of the molar value.
Measured endpoint: pEC50

Previously resolved entries follow.
[
  {
    "Compound structure": "Cc1c2c(c3ncnn3c1C)CN(C(=O)CC1CN(c3ccnc(OC4CC4)c3)C1)C2",
    "pEC50": 7.69
  },
  {
    "Compound structure": "COc1c(C)c2c(n3ncnc13)CN(C(=O)CC1CN(c3ccnc(C(F)(F)F)c3)C1)C2",
    "pEC50": 7.27
  },
  {
    "Compound structure": "[2H]C([2H])([2H])Oc1cc(N2CC(OC(=O)N3Cc4c(C)c(C)n5ncnc5c4C3)C2)ccn1",
    "pEC50": 7.02
  },
  {
    "Compound structure": "Cc1c2c(n3ncnc3c1Cl)CN(C(=O)CC1CN(c3ncc(C(F)(F)F)cn3)C1)C2",
    "pEC50": 7.77
  },
  {
    "Compound structure": "CCc1ccc(N2CC(CC(=O)N3Cc4c(C)c(C)n5ncnc5c4C3)C2)cn1",
    "pEC50": 7.98
  }
]

[A] Cc1c2c(c3ncnn3c1C)CN(C(=O)CC1CN(c3ccc(C4CC4)nc3)C1)C2
[B] Cc1c2c(c3ncnn3c1C)CN(C(=O)CC1CN(c3ncc(C4CC(F)(F)C4)cn3)C1)C2
[C] Cc1c2c(c3ncnn3c1C)CN(C(=O)OC1CN(c3cc(C(F)(F)F)ncc3Cl)C1)C2
hey, can you rank those compounds up there by pEC50? biggest number first please Labels, requested order. A, B, C

[1] CCOc1cc(N2CC(OC(=O)N3Cc4c(C)c(C)n5ncnc5c4C3)C2)ccn1
[2] Cc1ccc(N2CC(CC(=O)N3Cc4c(C)c(C)n5ncnc5c4C3)C2)cn1
[3] Cc1cn2cc(N3CC(OC(=O)N4Cc5c(C)c(C)n6ncnc6c5C4)C3)ccc2n1
// sort entries: pEC50, high to low Return value: ordered labels per request. 2, 1, 3
(2: 7.95, 1: 7.45, 3: 7.08)

[P] Cc1c2c(c3ncnn3c1C)CN(C(=O)c1ccc(F)c(Cl)c1)C2
[Q] Cc1cn2nc(N3CC(CC(=O)N4Cc5c(C)c(C)n6nc(C)nc6c5C4)C3)ccc2n1
[R] Cc1c2c(c3ncnn3c1C)CN(C(=O)OC1CN(c3ccc4nc(CF)cn4n3)C1)C2
List these items ordered by pEC50, big to small. Give the labels in the order requested. Q, P, R
(Q: 7.82, P: 7.43, R: 7.14)

[P] Cc1nc(Cl)c(C)c(N2CC(CC(=O)N3Cc4c(C)c(C)n5ncnc5c4C3)C2)n1
[Q] Cc1c2c(c3nccn3c1C)CN(C(=O)CC1CN(c3ccnc(C(F)(F)F)c3)C1)C2
Of P and Q , whose reported pEC50 is numerically smaller? The response must carry the label of the picked entry. P

---

Protocol description: Pharmacokinetic determination in Balb/c mice
Condition info: mouse, in vivo, po; male Balb/c mice, p.o. 5 mg/kg; read-out: MRT 0-∞
Measured endpoint: MRT inf (h)

// solved cases for MRT inf follow
[
  {
    "Compound structure": "Cc1c2c(c3ncnn3c1C)CN(C(=O)CC1CN(c3ncc(C(F)(F)F)cn3)C1)C2",
    "Unit tag": "h",
    "MRT inf": 1.4
  },
  {
    "Compound structure": "Cc1c2c(c3ncnn3c1C)CN(C(=O)CC1CN(c3ccnc(OC(F)F)c3)C1)C2",
    "Unit tag": "h",
    "MRT inf": 1.2
  },
  {
    "Compound structure": "Cc1c2c(c3ncnn3c1C)CN(C(=O)OC1CN(c3ccnc(C(F)F)c3)C1)C2",
    "Unit tag": "h",
    "MRT inf": 2.6
  },
  {
    "Compound structure": "Cc1cn2nc(N3CC(OC(=O)N4Cc5c(C)c(C)n6ncnc6c5C4)C3)ccc2n1",
    "Unit tag": "h",
    "MRT inf": 4.3
  }
]

[P] Cc1c2c(c3ncnn3c1C)CN(C(=O)OC1CN(c3ccnc(OC(F)F)c3)C1)C2
[Q] Cc1c2c(c3ncnn3c1C)CN(C(=O)OC1CN(c3ccnc(C(F)(F)F)c3)C1)C2
Could you tell me which of these two has the smaller MRT inf figure? First: P Second: Q Answer format: the label of the selected item. Q
